test: A CellTox Green Cytotoxicity Assay to monitor cytotoxicity in HepG2 cells - 16 hour (AID 1224876); conditions: CellTox Green fluorescence; series mostly up to 76.8 µM; further: nearly all actives have a fitted effect of over 45% in size
Inconclusive results are not listed. Calls of active or inactive are those of the source. The call rests on the fitted dose curve; in most records, active means well fitted activation curve with a large enough effect in the repeat runs; inconclusive means weak or mixed curves; inactive means flat fitted curve, though single readings scatter.
Tick one outcome: yes for active, no for inactive

1. CC(O)CN (stereo not drawn)
no
2. O=C(O)c1cccc(C(=O)O)c1C(=O)O
no
3. CCC[Si](OC)(OC)OC
no
4. COc1ccc(/C(C)=C/C(=O)O)c(OC)c1
no
5. CC1(C)C(=O)NC(=O)N1CO
no
6. C[C@H]1C[C@H]2[C@@H]3CCC4=CC(=O)C=C[C@]4(C)[C@@]3(F)[C@@H](O)C[C@]2(C)[C@@]1(O)C(=O)COP(=O)(O)O
no
7. CCOc1ccc(NC(C)=O)cc1N
no
8. CC(=O)c1ccc(Cl)c(Cl)c1Cl
no

In: Check the results log: what was the call for CCc1ccc2c(c1)C(=O)c1ccccc1C2=O ?
Out: no

In: Also CC(Cc1ccccc1)(NC(=O)CN)c1ccccc1 (stereo not drawn) ?
Out: no

---

test: qHTS assay to identify small molecule agonists of the estrogen receptor alpha (ER-alpha) signaling pathway in the presence of an antagonist - cell viability counter screen (AID 1259386); conditions: VM7Luc4E2 viability, CellTiter-Fluor fluorescence, 22 h; series mostly up to 92.4 µM;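 further: cells exposed to compounds for 22 h at 37 °C before the viability read; nearly all actives have a fitted effect of over 30% in size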
Records with an inconclusive call do not appear. The source made the active and inactive calls. Calls follow the shape of the dose curve; as a rule, active = well fitted cell-killing curve with a large enough effect in the repeat runs; inconclusive = weak or mixed curves, or effect the other way; inactive = no such curve, though single readings can be large or run the other way.
Tick one outcome: 1.0 (active), 0.0 (inactive)

Observe how each entry below is paired with its result.
1. CC(=O)c1cccnc1
0.0
2. O=C(N[C@@H](Cc1ccccc1)[C@@H](O)C(=O)N1C[C@@H](O)[C@@H](O)C1)c1cc2cc(Cl)ccc2[nH]1
0.0

In: Check the results log: what was the call for Cc1cc(N)n(-c2ccccc2)n1 ?
Out: 0.0

In: Also CCN(CCCCOC(=O)c1ccc(OC)c(OC)c1)C(C)Cc1ccc(OC)cc1 (stereo unspecified) ?
Out: 0.0

In: Also O=C(OCCOCCOCCOC(=O)c1ccccc1)c1ccccc1 ?
Out: 0.0

---

test: qHTS assay to identify small molecule antagonists of the thyroid receptor (TR) signaling pathway - cell viability counter screen (AID 743064); conditions: GH3.TRE-Luc viability, CellTiter-Fluor, 24 h; series mostly up to 70.3 µM; further: nearly all actives have a fitted effect of over 50% in size
Inconclusive results are not listed. Calls of active or inactive are those of the source. The call rests on the fitted dose curve; in most records, active means well fitted cell-killing curve with a large enough effect in the repeat runs; inconclusive means weak or mixed curves, or effect the other way; inactive means no such curve, though single readings can be large or run the other way.
Tick one outcome: active, inactive

Observe how each entry below is paired with its result.
1) NCCOCCOCCN
inactive
2) Cc1ccc(S(=O)(=O)NC(=O)NC2CCCC2)cc1
inactive
3) N#CCCCC(C#N)CCC#N (stereo not drawn)
inactive
4) COc1ccc(C(=O)c2ccc(C)cc2)c(O)c1
inactive
5) CCc1ccc(C(=O)C(C)CN2CCCCC2)cc1 (stereo not drawn)
inactive
6) COc1ccc(CN(CCN(C)C)c2ncccn2)cc1
inactive
7) CC(CCl)OC(C)CCl (stereo not drawn)
inactive
8) CC1=CC(=C(c2ccc(N)cc2)c2ccc(N)cc2)C=CC1=N
active

In: Check the results log: what was the call for Cc1cc(C)c(C)c(O)c1 ?
Out: inactive

In: Also O=Cc1ccc(Cl)c([N+](=O)[O-])c1 ?
Out: inactive

In: Also Clc1cc(Cl)c2c(c1)N=C1CCCCCN1C2 ?
Out: inactive

In: Also CCCC1CCOC(C)S1 (stereo not drawn) ?
Out: inactive

In: Also Cc1ccc2c(Cl)cc(Cl)c(O)c2n1 ?
Out: active

In: Also CCCN(C1CCN(C(=O)C2CCNCC2)CC1)[C@@H]1CCc2ccc(OC)cc2C1 ?
Out: active

In: Also SCCOCCOCCS ?
Out: inactive

In: Also CC(C)CCCCCCCOC(=O)c1ccc(C(=O)OCCCCCCCC(C)C)c(C(=O)OCCCCCCCC(C)C)c1 ?
Out: inactive

In: Also O=C1c2ccccc2C(=O)C1c1ccc2ccccc2n1 ?
Out: inactive

In: Also CCC(C)C1N=C(C)C(C)S1 (stereo not drawn) ?
Out: inactive

In: Also CC(C)CC(C)(C)C ?
Out: inactive

---

assay: qHTS RealTime-Glo MT Cell Viability Assay in HEK293 cells - 32 hour (AID 1224868); details: RealTime-Glo luminescence; series mostly up to 76.8 µM; further: nearly all actives have a fitted effect of over 50% in size
Inconclusive results are not listed. Calls of active or inactive are those of the source. Calls follow the shape of the dose curve; as a rule, active = well fitted cell-killing curve with a large enough effect in the repeat runs; inconclusive = weak or mixed curves, or effect the other way; inactive = flat fitted curve, though single readings scatter.
Tick one outcome: active, inactive

Observe how each entry below is paired with its result.
1) CCCCCCCCC(=O)OCC(C)OC(=O)CCCCCCCC (stereo not given)
inactive
2) CCCc1nc(C)c2c(=O)[nH]c(-c3cc(S(=O)(=O)N4CCN(CC)CC4)ccc3OCC)nn12
inactive
3) CCN(CC)CC(=O)OCC(=O)[C@@]1(O)CC[C@H]2[C@@H]3CCC4=CC(=O)CC[C@]4(C)[C@H]3[C@@H](O)C[C@@]21C
inactive

In: Check the results log: what was the call for O=C1C=CCCC1 ?
Out: inactive

In: Also O=C(O)c1c2ccccc2cc2ccccc12 ?
Out: active

In: Also COc1ccc(/C(C)=C/C(=O)O)c(OC)c1 ?
Out: inactive

---

test: qHTS RealTime-Glo MT Cell Viability Assay in HEK293 cells - 24 hour (AID 1224886); details: RealTime-Glo luminescence; series mostly up to 76.8 µM; further: nearly all actives have a fitted effect of over 50% in size
Records with an inconclusive call do not appear. Activity calls are given as the source filed them. Calls follow the shape of the dose curve; as a rule, active = well fitted cell-killing curve with a large enough effect in the repeat runs; inconclusive = weak or mixed curves, or effect the other way; inactive = flat fitted curve, though single readings scatter.
Tick one outcome: yes (1) for active, no (0) for inactive

1) CC(C)(Cc1c[nH]c2ccccc12)NCC(O)COc1ccccc1C#N (stereo not drawn)
yes (1)
2) Cc1nc2sccn2c(=O)c1CCN1CCC(=C(c2ccc(F)cc2)c2ccc(F)cc2)CC1
yes (1)

In: Check the results log: what was the call for O=P(c1ccccc1)(c1ccccc1)c1ccccc1 ?
Out: no (0)

In: Also N#C[C@@H]1CC(F)(F)CN1C(=O)CNC1CC2CCC(C1)N2c1ncccn1 (stereo partly drawn) ?
Out: no (0)

In: Also CCOC(OCC)OCC ?
Out: no (0)

In: Also CCC[Si](OC)(OC)OC ?
Out: no (0)

---

assay: qHTS assay to identify small molecule agonists of the estrogen receptor beta (ER-beta) signaling pathway - cell viability counter screen (AID 1259380); details: ER-beta-bla HEK293T viability, CellTiter-Glo luminescence, 16 h; series mostly up to 92.4 µM; further: nearly all actives have a fitted effect of over 30% in size
Inconclusive results are not listed. Activity calls are given as the source filed them. Calls follow the shape of the dose curve; as a rule, active = well fitted cell-killing curve with a large enough effect in the repeat runs; inconclusive = weak or mixed curves, or effect the other way; inactive = flat fitted curve, though single readings scatter.
Tick one outcome: active, inactive

Observe how each entry below is paired with its result.
1) Cc1cc(C)c(C)c(O)c1
inactive
2) CCCCCCCCS
inactive
3) O=C(Cl)c1ccc(F)c(Cl)c1
inactive

In: Check the results log: what was the call for CCC[Si](OC)(OC)OC ?
Out: inactive

In: Also Cc1ccc2c(Cl)cc(Cl)c(O)c2n1 ?
Out: inactive

In: Also C=Cc1ccc(C=C)cc1 ?
Out: inactive

In: Also CC(=O)OCC(=O)[C@@]1(O)CC[C@H]2[C@@H]3CCC4=CC(=O)C=C[C@]4(C)[C@@]3(F)[C@@H](O)C[C@@]21C ?
Out: inactive

---

test: qHTS assay to identify small molecule agonists of the hypoxia (HIF-1) signaling pathway - cell viability counter screen (AID 1224844); conditions: HRE-bla ME-180 viability, CellTiter-Glo luminescence, 17 h; series mostly up to 76.8 µM; further: nearly all actives have a fitted effect of over 50% in size
Inconclusive results are not listed. The source made the active and inactive calls. Calls come from the whole dose curve.
Tick one outcome: active, inactive

Observe how each entry below is paired with its result.
1. CCC(CC)C(=O)O
inactive
2. O=C(c1ccco1)N1CCNCC1
inactive
3. Cc1c(-c2cccnc2)c2ccccc2n1CCCCC(=O)O
inactive
4. CCCCCCCCCCCCCCCCN
inactive
5. O=C(O)c1cc(C(=O)O)cc([N+](=O)[O-])c1
inactive
6. C=CC(C)(O)CC/C=C(/C)CCC=C(C)C (stereo not drawn)
inactive
7. FC(F)(Cl)C(F)(Cl)Cl
inactive
8. Cc1ccc2ccccc2c1[N+](=O)[O-]
inactive

In: Check the results log: what was the call for O=C(OCCCCCOC(=O)c1ccccc1)c1ccccc1 ?
Out: inactive

In: Also O=P(c1ccccc1)(c1ccccc1)c1ccccc1 ?
Out: inactive

In: Also CCC(C)C1N=C(C)C(C)S1 (stereo not drawn) ?
Out: inactive

In: Also CCOc1ccccc1O ?
Out: inactive

In: Also CCCCC(CC)COCCC#N (stereo not drawn) ?
Out: inactive

In: Also N#C[C@@H]1CC(F)(F)CN1C(=O)CNC1CC2CCC(C1)N2c1ncccn1 (stereo partly drawn) ?
Out: inactive

In: Also Nc1ccc(-c2ccc(F)cc2)cc1 ?
Out: inactive

In: Also CS(C)=O ?
Out: inactive

In: Also CC(C)=CCC/C(C)=C/C=N/O ?
Out: inactive

---

assay: qHTS RealTime-Glo MT Cell Viability Assay in HEK293 cells - 40 hour (AID 1224874); conditions: RealTime-Glo luminescence
Results filed as inconclusive are left out. Active and inactive are the calls of the source. Calls follow the shape of the dose curve; as a rule, active = well fitted cell-killing curve with a large enough effect in the repeat runs; inconclusive = weak or mixed curves, or effect the other way; inactive = flat fitted curve, though single readings scatter.
quantity_kind: Potency

1. CC1=C(C)C(=O)C(CCCCC#CCCCC#CCO)=C(C)C1=O
0.674 µM (active)

Okay, next one:
In: Param item = CC(C)C[C@H](NC(=O)[C@H](Cc1ccccc1)NC(=O)c1cnccn1)B(O)O ; retrieve measured Potency.
Out: 0.0239 µM (active)
